Kindly state pKi for each of the entries shown.
# system: Protein kinase C alpha type (Homo sapiens)
# method notes: Displacement of [3H]PDBu from human recombinant PKCalpha expressed in Escherichia coli […] (DE3)
Lab note: report pKi as minus log10 of the concentration in molar units, number only.

// lookup pKi for CN(C)c1ccc(C(=O)OCC2(CO)C/C(=C/c3cnc4ccccc4c3)C(=O)O2)cc1 (stereo not drawn)
5.31

Any idea what pKi was measured for COc1ccc(C(=O)OCC2(CO)C/C(=C/c3ccc4ccccc4n3)C(=O)O2)cc1 (stereo not drawn) ?
5.53

Tell me the measured pKi of COc1ccc(C(=O)OCC2(CO)C/C(=C/c3cnc4ccccc4c3)C(=O)O2)cc1 (stereo not drawn) , please.
5.29

GET /values?readout=pKi&item= COc1ccc(C(=O)OCC2(CO)C/C(=C\c3cn(C)c4ccccc34)C(=O)O2)cc1 (stereo not drawn)
6.67

Given the molecule COc1ccc(C(=O)OCC2(CO)C/C(=C\c3cnc4ccccc4c3)C(=O)O2)cc1 (stereo not drawn) , what is its reported pKi?
6.84

Quick check: pKi of COc1ccc(C(=O)OCC2(CO)C/C(=C\c3cccnc3)C(=O)O2)cc1 (stereo not drawn) ?
6.09

Give its pKi value. Item: CN(C)c1ccc(C(=O)OCC2(CO)C/C(=C\c3ccc4ccccc4n3)C(=O)O2)cc1 (stereo not drawn)
6.82

Tell me the measured pKi of CN(C)c1ccc(C(=O)OCC2(CO)C/C(=C/c3ccc4ccccc4n3)C(=O)O2)cc1 (stereo not drawn) , please.
4.80

---

Provide the recorded logP for the entries that follow.
# method notes: Lipophilicity, SlogP of the compound
# Assay type: physicochemical
# assay conditions: octanol/water
Respond with the number and no other words.

Quick check: logP of CN(C)c1ccc(C(=O)OCC2(CO)C/C(=C\c3ccccn3)C(=O)O2)cc1 (stereo unspecified) ?
2.07

// query logP value for entry CCCC(CCC)C(=O)OCC1(CO)C/C(=C/c2ccncc2)C(=O)O1 (stereo unspecified)
2.9

Which value of logP has been reported for COc1ccc(C(=O)OCC2(CO)C/C(=C\c3ccc4ccccc4n3)C(=O)O2)cc1 (stereo unspecified) in the records?
3.16

GET /values?readout=logP&item= CCCC(CCC)C(=O)OCC1(CO)C/C(=C\c2ccncc2)C(=O)O1 (stereo unspecified)
2.9

Looking for the measured logP of CCCC(CCC)C(=O)OCC1(CO)C/C(=C\c2ccc3ccccc3n2)C(=O)O1 (stereo unspecified) , can you help?
4.06

Could you share which logP value was measured for COc1ccc(C(=O)OCC2(CO)C/C(=C\c3cnc4ccccc4c3)C(=O)O2)cc1 (stereo unspecified) ?
3.16
